Hello, the source for this data is patent US20220324835A1, in case you need it.

biological target: Cbl-b (Homo sapiens); assay: Cbl-b activity assay (Cbl-b inhibition assay), TR-FRET of Cbl-b interaction with UbcH5B-Ub; assay type: biochemical; conditions: assay buffer with 100 mM NaCl, 60 nM Src kinase; read-out: Cbl-b activity IC50
Sequence (Q13191 36-427): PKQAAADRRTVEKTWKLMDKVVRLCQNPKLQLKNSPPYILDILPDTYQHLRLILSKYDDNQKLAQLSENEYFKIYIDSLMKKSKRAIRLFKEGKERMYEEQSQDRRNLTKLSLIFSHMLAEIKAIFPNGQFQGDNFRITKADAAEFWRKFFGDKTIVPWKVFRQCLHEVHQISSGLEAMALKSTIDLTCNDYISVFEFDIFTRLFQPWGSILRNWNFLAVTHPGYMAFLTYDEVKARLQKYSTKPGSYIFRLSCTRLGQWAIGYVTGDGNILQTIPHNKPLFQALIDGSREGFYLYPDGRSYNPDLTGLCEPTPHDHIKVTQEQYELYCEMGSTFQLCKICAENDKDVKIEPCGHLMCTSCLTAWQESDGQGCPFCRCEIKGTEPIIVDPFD
reported.property: IC50

>  <compound>
C[C@H](Cc1nncn1C)c1cccc(NC(=O)c2[nH]nc3c2CCCC3)c1

>  <IC50>
301 to 1000 nM

$$$$
>  <compound>
Cn1cnnc1CC1(c2cccc(NC(=O)c3[nH]nc4c3OCCC4)c2)COC1

>  <IC50>
< 100 nM

$$$$
>  <compound>
Cn1cnnc1C[C@H](c1cccc(N2Cc3c(cccc3C(F)(F)F)C2=O)c1)C(F)(F)F [Compound 471a]

>  <IC50>
100 to 300 nM

$$$$
>  <compound>
C[C@H](Sc1nncn1C)c1cccc(NC(=O)c2cc(C(=O)NC[C@@H](C)O)ccn2)c1

>  <IC50>
3000 to 10000 nM

$$$$
>  <compound>
C[C@@H]1CCN(Cc2cc3c(c(C(F)(F)F)c2)CN(c2cccc(C4(Cc5nncn5C)COC4)c2)C3=O)C[C@H]1F (relative stereo)

>  <IC50>
< 100 nM

$$$$
>  <compound>
C[C@@H](c1cc2c(c(C(F)(F)F)c1)CN(c1cccc(C3(Cc4nncn4C)COC3)c1)C2=O)N1CCC2(CC1)CC2 [Example 558a]

>  <IC50>
< 100 nM

$$$$
>  <compound>
C[C@@H](c1cc2c(c(C(F)(F)F)c1)CN(c1cccc([C@@](C)(F)C(F)(F)c3nncn3C)c1)C2=O)N1CC[C@H](F)C1

>  <IC50>
< 100 nM

$$$$
>  <compound>
C[C@H](Cc1nncn1C)c1cccc(NC(=O)c2cc(C(=O)N3CCC4(COC4)C3)ccn2)c1

>  <IC50>
3000 to 10000 nM

$$$$

Hi, could you look up IC50 for each item in my list?
1. Cc1cc(C(=O)Nc2cccc(C3(Cc4nncn4C)COC3)c2)n2nc(C)cc2n1
2. C[C@@H](c1cc2c(c(C(F)(F)F)c1)CN(c1cccc(C3(C(F)(F)c4nncn4C)COC3)c1)C2=O)N1CC[C@H](F)C1
3. CC1CCN(Cc2cc3c(c(C(F)(F)F)c2)CN(c2cccc(C4(Cc5nncn5C)COC4)c2)C3=O)CC1(F)F (centres unmarked)
4. C[C@@H](Cc1nncn1C)c1cccc(NC(=O)c2cc3cc(N4CCN(C)C(=O)C4)ccc3cn2)c1 [Compound 210, 2,2,2-trifluoroacetate]
5. C[C@H](Sc1nncn1C)c1cccc(N2Cc3c(ccnc3Cl)C2=O)c1

1. 100 to 300 nM
2. < 100 nM
3. < 100 nM
4. 3000 to 10000 nM
5. 301 to 1000 nM

I would be grateful if you could share the reported IC50 for `Cn1cnnc1CC1(c2cccc(NC(=O)c3cc(CN4CCCCC4)nc(C4CC4)n3)c2)COC1` .
< 100 nM

* * *

The following compounds have recorded Kd on Cbl-b (residues 36-427) (Homo sapiens).
Sequence (Q13191 36-427): as above

>  <compound>
Cc1[nH]cnc1CC(C)c1cccc(N2Cc3c(cccc3C(F)(F)F)C2=O)c1 (stereo not drawn)

>  <Kd>
3 to 10 µM

$$$$
>  <compound>
C[C@H](Cc1nncn1C)c1cccc(NC(=O)c2cc(C3(O)COC3)cc(C(F)(F)F)n2)c1

>  <Kd>
0.1 to 0.3 µM

$$$$
>  <compound>
C[C@H](Sc1nnc[nH]1)c1cccc(NC(=O)c2cc3ccccc3cn2)c1

>  <Kd>
3 to 10 µM

$$$$
>  <compound>
C[C@@H](Sc1nncn1C)c1cccc(NC(=O)c2cc(C(=O)N3CC[C@H](O)C3)ccn2)c1

>  <Kd>
> 10 µM

$$$$
>  <compound>
C[C@H](Cc1nncn1C)c1cccc(N2Cc3c(cc(CO)cc3C(F)(F)F)C2=O)c1

>  <Kd>
< 0.1 µM

$$$$
>  <compound>
C[C@H](Cc1nncn1C)c1cccc(NC(=O)c2cc(C(=O)N3CC[C@@H](C#N)C3)ccn2)c1

>  <Kd>
1 to 3 µM

$$$$

Hi, could you look up Kd for each item in my list?
1. Cc1ccc(C(=O)Nc2cccc([C@H](C)Cc3nnc[nH]3)c2)nc1C1CC1
2. C[C@H](Cc1nncn1C)c1cccc(N2Cc3c(cccc3C(F)(F)F)C2=O)c1 [Compound 255a]
3. COc1cc(C(=O)Nc2cccc([C@H](C)Sc3nncn3C)c2)nc(C(F)(F)F)c1
4. C[C@H](Sc1nncn1C)c1cccc(NC(=O)c2cc(C(=O)N3CCC[C@@H](O)C3)ccn2)c1

1 to 3 µM
0.1 to 0.3 µM
0.1 to 0.3 µM
> 10 µM
